// data source = ChEMBL document CHEMBL1201862

target: UniProtKB Q9QUQ5; assay: calcium entry via TRPC4 opening agents – cell-based, HEK293 TRPC4/mu-opioid, Fluo-4 calcium, dose response (AID 434937); assay type: functional
Sequence (Q9QUQ5 whole entry): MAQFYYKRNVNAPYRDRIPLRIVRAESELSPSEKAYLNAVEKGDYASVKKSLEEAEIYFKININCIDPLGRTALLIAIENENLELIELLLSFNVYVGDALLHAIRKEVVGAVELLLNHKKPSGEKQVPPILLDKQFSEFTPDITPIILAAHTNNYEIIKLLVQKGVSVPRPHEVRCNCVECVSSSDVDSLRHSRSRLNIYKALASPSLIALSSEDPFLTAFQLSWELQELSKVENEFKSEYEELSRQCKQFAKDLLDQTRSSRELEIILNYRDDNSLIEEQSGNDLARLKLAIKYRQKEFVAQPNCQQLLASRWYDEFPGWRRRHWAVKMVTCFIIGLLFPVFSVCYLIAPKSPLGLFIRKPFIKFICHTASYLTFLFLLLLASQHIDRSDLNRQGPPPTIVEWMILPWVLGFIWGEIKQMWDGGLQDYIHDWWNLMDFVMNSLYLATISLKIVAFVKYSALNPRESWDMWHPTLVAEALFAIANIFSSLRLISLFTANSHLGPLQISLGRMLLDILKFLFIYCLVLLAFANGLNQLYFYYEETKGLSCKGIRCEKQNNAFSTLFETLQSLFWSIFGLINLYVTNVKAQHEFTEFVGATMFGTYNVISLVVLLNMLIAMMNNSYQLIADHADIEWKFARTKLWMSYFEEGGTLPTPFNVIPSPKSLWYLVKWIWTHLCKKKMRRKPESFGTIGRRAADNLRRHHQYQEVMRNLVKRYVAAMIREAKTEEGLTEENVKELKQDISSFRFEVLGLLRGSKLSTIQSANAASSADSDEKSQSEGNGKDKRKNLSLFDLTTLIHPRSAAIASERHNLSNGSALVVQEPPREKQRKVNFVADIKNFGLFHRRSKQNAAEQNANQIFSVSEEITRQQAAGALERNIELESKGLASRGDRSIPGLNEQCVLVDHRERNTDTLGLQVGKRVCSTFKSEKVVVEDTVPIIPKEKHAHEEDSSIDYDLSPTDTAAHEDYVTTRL
The source made the active and inactive calls.
outcome-measure: EC50

Would you please look over these solved cases?
The value of EC50 measured for the compound CN(C)C1(CNC(=O)Nc2ccc(Cl)c(Cl)c2)CCCCC1 turned out to be 1.68 µM (active)

The value of EC50 measured for the compound Cc1cccc(C(=O)OC2CCCN(C)C2)c1C (centres undefined) turned out to be 0.841 µM (active)

The value of EC50 measured for the compound Cc1cc(C)cc(C(=O)N(CCc2ccccc2)C2=CC3CCC(C2)N3C)c1 (centres undefined) turned out to be 0.267 µM (active)

New cases:
The value of EC50 measured for the compound CN(C)C(CNC(=O)C1CC(=O)N(Cc2ccccc2)C1)c1ccccc1 (centres undefined) turned out to be 1.33 µM (active)

* * *

biological target: Mucolipin-3 (Homo sapiens); assay: Dose response cell-based high-throughput screening assay for agonists of the transient receptor potential channel ML3 (TRPML3). [Related pubchem assays: 1526, 1424, 1448 ]; assay type: functional
Sequence (Q8TDD5 whole entry): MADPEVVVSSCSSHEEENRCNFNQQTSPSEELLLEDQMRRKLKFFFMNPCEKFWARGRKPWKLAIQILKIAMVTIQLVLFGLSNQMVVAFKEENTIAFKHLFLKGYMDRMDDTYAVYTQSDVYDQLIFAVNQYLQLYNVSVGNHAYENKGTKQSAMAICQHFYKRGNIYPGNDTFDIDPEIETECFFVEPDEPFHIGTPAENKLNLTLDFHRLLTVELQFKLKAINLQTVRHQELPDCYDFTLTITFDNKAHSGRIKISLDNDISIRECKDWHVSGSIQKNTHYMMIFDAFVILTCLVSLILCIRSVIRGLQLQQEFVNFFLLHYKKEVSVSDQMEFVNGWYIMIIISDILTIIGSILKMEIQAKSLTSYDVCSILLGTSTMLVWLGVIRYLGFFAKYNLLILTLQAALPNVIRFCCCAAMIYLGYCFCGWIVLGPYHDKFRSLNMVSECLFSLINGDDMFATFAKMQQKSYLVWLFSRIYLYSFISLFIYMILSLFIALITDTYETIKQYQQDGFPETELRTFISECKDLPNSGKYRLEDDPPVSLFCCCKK
Activity calls are given as the source filed them.
EC50 overview

The value of EC50 measured for the compound C=CCOc1ccc2c(c1)c(S(=O)(=O)c1ccc(C)cc1)cn2COC turned out to be 1.16 µM (active)

The value of EC50 measured for the compound COc1cc(C)nc(N(Cc2ccccc2)S(=O)(=O)c2ccc(C)cc2)n1 turned out to be 6.93 µM (active)

The value of EC50 measured for the compound Cc1ccc(S(=O)(=O)N(C)CC(=O)ONC(=N)c2cccc([N+](=O)[O-])c2)cc1 turned out to be 12.1 µM (not active)

New cases:
The value of EC50 measured for the compound C=C(C)CN1CCN(S(=O)(=O)c2ccc(C)c(N(C)S(=O)(=O)c3ccc(C)cc3)c2C)CC1 turned out to be 2.76 µM (active)

* * *

molecular target: Sentrin-specific protease 8 (Homo sapiens); type: functional
Sequence (Q96LD8 whole entry): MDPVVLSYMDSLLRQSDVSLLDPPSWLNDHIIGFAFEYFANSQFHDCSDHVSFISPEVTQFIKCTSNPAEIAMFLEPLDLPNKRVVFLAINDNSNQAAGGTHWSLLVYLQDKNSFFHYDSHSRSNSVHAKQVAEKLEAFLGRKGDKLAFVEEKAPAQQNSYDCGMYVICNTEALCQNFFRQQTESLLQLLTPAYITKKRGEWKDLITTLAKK
Calls of active or inactive are those of the source.
IC50 overview

Item CN(C)/C=N/c1c(Br)cc(Br)c2nonc12 was tested on Sentrin-specific protease 8 (Homo sapiens); the reported IC50 is 21.3 µM (active)

Item NS(=O)(=O)c1ccc(CCNC(=O)COC(=O)c2ccc([N+](=O)[O-])o2)cc1 was tested on Sentrin-specific protease 8 (Homo sapiens); the reported IC50 is 6.46 µM (active)

Item O=C1Nc2ccc([N+](=O)[O-])cc2C1=Nc1cccc(CO)c1 was tested on Sentrin-specific protease 8 (Homo sapiens); the reported IC50 is 8.6 µM (active)

Note: attention shifts to another entry.
Item OCCN1CCN(C(=S)c2ccc(Cl)c(Cl)c2)CC1 was tested on Sentrin-specific protease 8 (Homo sapiens); the reported IC50 is 18.4 µM (active)

* * *

EC50 overview
molecular target: RNA-binding protein pos-1 (Caenorhabditis elegans, UniProt G5EF15); experiment: disruptors of C. elegans POS-1 RNA interaction – biochemical, fluorescence polarization, dose response (AID 1964);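 note: purified POS-1 fused to maltose binding protein made in E. coli; potency of compounds blocking POS-1 binding to fluorescent RNA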
Sequence (G5EF15 whole entry, the tested form may be a part): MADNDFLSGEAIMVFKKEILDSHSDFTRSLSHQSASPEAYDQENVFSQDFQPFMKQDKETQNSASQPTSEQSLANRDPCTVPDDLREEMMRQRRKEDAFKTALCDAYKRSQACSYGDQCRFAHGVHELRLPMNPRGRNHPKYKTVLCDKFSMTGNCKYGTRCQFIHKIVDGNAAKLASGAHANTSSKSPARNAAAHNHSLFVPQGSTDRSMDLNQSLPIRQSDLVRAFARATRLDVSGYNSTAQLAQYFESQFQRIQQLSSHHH
Calls of active or inactive are those of the source.

Item O=c1c2ccccc2oc2ccc(NCCCn3ccnc3)cc12 was tested on RNA-binding protein pos-1 (Caenorhabditis elegans, UniProt G5EF15); the reported EC50 is 55.2 µM (active)

Item O=C(NC1CC1)C1Nc2ccc(OC(F)(F)F)cc2C2C=CCC12 (stereo unspecified) was tested on RNA-binding protein pos-1 (Caenorhabditis elegans, UniProt G5EF15); the reported EC50 is > 300 µM (not active)

Item O=C(NCCCN1CCOCC1)C1Nc2ccc(OC(F)(F)F)cc2C2C=CCC12 (stereo unspecified) was tested on RNA-binding protein pos-1 (Caenorhabditis elegans, UniProt G5EF15); the reported EC50 is > 300 µM (not active)

Item O=C(OCCc1ccccc1)c1cc(O)c(O)c(O)c1 was tested on RNA-binding protein pos-1 (Caenorhabditis elegans, UniProt G5EF15); the reported EC50 is > 300 µM (not active)

Item Oc1ccc(/C=N/Nc2[nH]cnc3ncnc2-3)cc1 was tested on RNA-binding protein pos-1 (Caenorhabditis elegans, UniProt G5EF15); the reported EC50 is > 300 µM (not active)

Note: attention shifts to another entry.
Item CCC1=NN2C(=N)/C(=C\c3ccc(SCc4ccco4)o3)C(=O)N=C2S1 was tested on RNA-binding protein pos-1 (Caenorhabditis elegans, UniProt G5EF15); the reported EC50 is 4.36 µM (active)

* * *

target: Glucose-6-phosphate 1-dehydrogenase (Homo sapiens, UniProt P11413); assay: inhibition of Homo sapiens G6PD, dose series – biochemical, fluorescence, selectivity assay for P. falciparum G6PD inhibitor project, dose response (AID 504792); type: functional
Sequence (P11413 whole entry): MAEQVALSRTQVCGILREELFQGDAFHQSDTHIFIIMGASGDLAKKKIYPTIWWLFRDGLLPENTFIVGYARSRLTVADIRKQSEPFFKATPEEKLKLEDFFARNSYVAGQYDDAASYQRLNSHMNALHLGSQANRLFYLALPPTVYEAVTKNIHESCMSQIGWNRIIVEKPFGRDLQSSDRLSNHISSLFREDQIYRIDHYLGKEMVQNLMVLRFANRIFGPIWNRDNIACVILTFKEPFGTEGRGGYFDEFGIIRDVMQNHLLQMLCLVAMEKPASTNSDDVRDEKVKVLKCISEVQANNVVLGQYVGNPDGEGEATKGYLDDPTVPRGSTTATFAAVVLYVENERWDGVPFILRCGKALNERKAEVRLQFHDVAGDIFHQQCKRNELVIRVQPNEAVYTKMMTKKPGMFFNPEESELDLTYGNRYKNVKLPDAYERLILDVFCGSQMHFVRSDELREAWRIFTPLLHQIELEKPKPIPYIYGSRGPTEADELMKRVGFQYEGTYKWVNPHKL
The source made the active and inactive calls.
Can you answer with just one of these options? active, inactive

Hey, what did the test say about CCN(CC)C(=S)SSC(=S)N(CC)CC ?
inactive

New cases:
Hey, what did the test say about O=c1c2ccc(F)cc2sn1-c1ccccc1 ?
active

Hey, what did the test say about COC(=O)c1ccccc1/N=C1\C=C(NS(=O)(=O)c2cccs2)c2ccccc2C1=O ?
inactive

Hey, what did the test say about OCCN1CCN(C(=S)c2ccc(-c3ccccc3)cc2)CC1 ?
inactive

* * *

assay: P. falciparum Dd2 growth inhibitors, dose response, SYBR Green, cherry-picked samples (AID 1159567); assay type: functional, cell-based
Active and inactive are the calls of the source.
outcome-measure: AC50

The value of AC50 measured for the molecule COc1ccc2c3c([nH]c2c1)[C@H](CO)N(C(=O)C1CCOCC1)CC31CCN(Cc2nccs2)CC1 turned out to be 2430 nM (active)

The value of AC50 measured for the molecule C/C=C/c1ccc([C@H]2[C@@H](CO)N(CC3CCCC3)[C@@H]2CNC(=O)NC(C)C)cc1 turned out to be 2710 nM (active)

The value of AC50 measured for the molecule Cc1cccc(-c2ccc([C@@H]3[C@@H]4CN(C(=O)C5CCCC5)C[C@H]3N4)cc2)c1 turned out to be 4390 nM (active)

Note: attention shifts to another entry.
The value of AC50 measured for the molecule COc1ccc2c3c([nH]c2c1)[C@H](CO)N(Cc1ccccc1)CC31CCN(CC2CC2)CC1 turned out to be 2620 nM (active)

* * *

molecular target: Replicative DNA helicase DnaB (Mycobacterium tuberculosis); assay: DnaB intein splicing inhibitors, dose response, biochemical, cell-free fluorescence (AID 449749); type: functional
Activity calls are given as the source filed them.
Can you answer with just one of these options? yes (1) (active), no (0) (inactive)

// known answers, use as guide
Hey, what did the test say about Clc1ncnc2scc(C3COc4ccccc4O3)c12 (stereo unspecified) ?
yes (1)

Hey, what did the test say about Cc1ccc2c(c1)N(C(=O)CSc1nncn1C)C(C)(C)c1ssc(=S)c1-2 ?
yes (1)

Hey, what did the test say about C[n+]1c2ccccc2nc2ccc(NCCO)cc21 ?
yes (1)

New cases:
Hey, what did the test say about COc1ccccc1/C=C1/C(=O)N(c2ccccc2)N=C1C ?
yes (1)

Hey, what did the test say about CCn1c(SCC(=O)Nc2nc(-c3ccc(C)cc3)cs2)nnc1-c1ccccc1O ?
yes (1)

Hey, what did the test say about Oc1cc(N=Nc2ccc(Cl)cc2)nc(O)n1 ?
yes (1)

* * *

IC50 overview
target: Fatty acid synthase (Homo sapiens, UniProt P49327); test: inhibition of human FAS-TE enzyme activity – biochemical, kinetic fluorescence intensity, dose response (AID 624326); format: functional;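 note: rate of fluorescence rise from hydrolysis of a fluorogenic O-methyl fluorescein ester substrate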
Sequence (P49327 whole entry): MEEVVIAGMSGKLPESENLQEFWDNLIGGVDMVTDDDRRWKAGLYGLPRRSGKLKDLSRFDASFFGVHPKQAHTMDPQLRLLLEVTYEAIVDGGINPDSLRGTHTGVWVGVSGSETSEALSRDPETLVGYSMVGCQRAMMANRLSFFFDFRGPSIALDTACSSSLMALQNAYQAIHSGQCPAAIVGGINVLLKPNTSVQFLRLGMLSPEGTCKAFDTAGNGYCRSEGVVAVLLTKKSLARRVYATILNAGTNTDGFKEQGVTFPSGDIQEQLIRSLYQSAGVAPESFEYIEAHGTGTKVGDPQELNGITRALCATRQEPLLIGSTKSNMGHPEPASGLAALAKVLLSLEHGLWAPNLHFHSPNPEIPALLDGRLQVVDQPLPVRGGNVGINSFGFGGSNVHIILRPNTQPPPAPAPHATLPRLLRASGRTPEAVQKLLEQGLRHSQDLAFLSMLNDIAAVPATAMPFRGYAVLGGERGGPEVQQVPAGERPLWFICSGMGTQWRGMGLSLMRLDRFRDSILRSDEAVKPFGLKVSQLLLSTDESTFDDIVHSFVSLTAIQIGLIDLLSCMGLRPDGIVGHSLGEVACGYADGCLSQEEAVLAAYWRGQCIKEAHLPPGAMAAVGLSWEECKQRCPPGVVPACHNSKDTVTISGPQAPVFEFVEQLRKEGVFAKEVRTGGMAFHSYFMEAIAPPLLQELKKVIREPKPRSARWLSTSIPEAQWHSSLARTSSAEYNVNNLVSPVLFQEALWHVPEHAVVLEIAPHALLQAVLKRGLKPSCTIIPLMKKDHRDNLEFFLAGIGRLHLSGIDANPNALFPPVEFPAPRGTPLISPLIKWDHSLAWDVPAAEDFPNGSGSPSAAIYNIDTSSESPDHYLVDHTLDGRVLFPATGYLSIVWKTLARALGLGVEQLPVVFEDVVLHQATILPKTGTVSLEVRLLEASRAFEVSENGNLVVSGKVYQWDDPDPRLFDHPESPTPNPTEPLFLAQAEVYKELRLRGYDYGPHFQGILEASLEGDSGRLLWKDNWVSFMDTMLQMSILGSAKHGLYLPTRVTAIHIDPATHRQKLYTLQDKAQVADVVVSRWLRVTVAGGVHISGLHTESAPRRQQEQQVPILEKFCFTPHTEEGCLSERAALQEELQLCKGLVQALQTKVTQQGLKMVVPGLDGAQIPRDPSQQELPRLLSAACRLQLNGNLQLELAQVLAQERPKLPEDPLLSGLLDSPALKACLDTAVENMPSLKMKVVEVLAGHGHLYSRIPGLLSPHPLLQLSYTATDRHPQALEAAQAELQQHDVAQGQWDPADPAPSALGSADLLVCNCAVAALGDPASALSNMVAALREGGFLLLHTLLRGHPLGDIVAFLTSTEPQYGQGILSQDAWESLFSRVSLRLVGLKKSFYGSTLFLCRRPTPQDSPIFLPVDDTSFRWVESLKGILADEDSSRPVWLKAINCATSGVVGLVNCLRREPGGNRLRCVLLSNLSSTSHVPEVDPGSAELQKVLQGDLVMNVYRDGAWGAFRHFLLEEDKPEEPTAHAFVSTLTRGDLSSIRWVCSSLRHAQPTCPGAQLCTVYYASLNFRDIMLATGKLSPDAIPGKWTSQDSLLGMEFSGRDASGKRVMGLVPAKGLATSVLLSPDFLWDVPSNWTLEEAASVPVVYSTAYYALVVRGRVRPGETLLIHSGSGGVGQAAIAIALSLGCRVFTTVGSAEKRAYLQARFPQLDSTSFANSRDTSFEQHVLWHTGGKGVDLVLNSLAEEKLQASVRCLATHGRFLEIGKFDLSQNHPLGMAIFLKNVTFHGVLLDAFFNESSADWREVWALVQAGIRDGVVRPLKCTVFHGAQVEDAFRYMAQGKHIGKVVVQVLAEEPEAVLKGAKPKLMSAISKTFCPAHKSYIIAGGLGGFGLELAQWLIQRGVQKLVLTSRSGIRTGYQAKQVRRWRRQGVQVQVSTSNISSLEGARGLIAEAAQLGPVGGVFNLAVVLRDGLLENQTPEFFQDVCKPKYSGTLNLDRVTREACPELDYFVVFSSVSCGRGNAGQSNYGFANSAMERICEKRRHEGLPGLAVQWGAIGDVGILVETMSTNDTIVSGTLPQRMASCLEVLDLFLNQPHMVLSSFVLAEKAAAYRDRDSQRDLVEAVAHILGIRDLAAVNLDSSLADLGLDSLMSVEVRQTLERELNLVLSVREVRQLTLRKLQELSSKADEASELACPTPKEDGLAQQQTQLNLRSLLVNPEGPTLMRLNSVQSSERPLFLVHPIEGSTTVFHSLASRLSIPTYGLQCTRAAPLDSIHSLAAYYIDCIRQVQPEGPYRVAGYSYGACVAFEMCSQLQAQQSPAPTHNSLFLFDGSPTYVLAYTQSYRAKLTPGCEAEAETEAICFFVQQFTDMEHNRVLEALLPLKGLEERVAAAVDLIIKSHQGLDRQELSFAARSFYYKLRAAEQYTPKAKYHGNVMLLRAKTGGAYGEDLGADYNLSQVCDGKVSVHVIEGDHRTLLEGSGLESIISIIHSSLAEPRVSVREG
The source made the active and inactive calls.

Would you please look over these solved cases?
The value of IC50 measured for the compound Cc1ccc(NC(=O)CCNS(=O)(=O)c2cc(Br)cnc2N)cc1Cl turned out to be 16.1 µM (active)

The value of IC50 measured for the compound O=C(COC(=O)c1cc([N+](=O)[O-])ccc1N1CCOCC1)Nc1ncc(Cl)cc1Cl turned out to be 7.24 µM (active)

The value of IC50 measured for the compound CCCN(CC(=O)Nc1ccc(F)c(F)c1F)C(=O)c1cc([N+](=O)[O-])ccc1N1CCOCC1 turned out to be 10.6 µM (active)

Note: attention shifts to another entry.
The value of IC50 measured for the compound COc1ccc(NC(=O)CC2C(=O)N(C)C(=S)N2Cc2cccs2)cc1 (centres undefined) turned out to be 15.8 µM (active)

* * *

molecular target: Ubiquitin-conjugating enzyme E2 N (Homo sapiens); format: functional;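 note: Dose-response confirmation in a TR-FRET assay detecting UBC13-driven polyubiquitin chain formation, inhibition measured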
Active and inactive are the calls of the source.
Can you answer with just one of these options? active, inactive

// known answers, use as guide
Hey, what did the test say about CCN(CC)Cc1cc2[nH]c3c4ccc(Cl)cc4ncc3c2cc1OC ?
inactive

Hey, what did the test say about NC(=S)N=Nc1c(O)n(C2OC(=O)c3ccccc32)c2ccccc12 (centres undefined) ?
active

New cases:
Hey, what did the test say about CCN(CC)CCOc1ccc(/C(=C(\Cl)c2ccccc2)c2ccccc2)cc1.O=C(O)CC(O)(CC(=O)O)C(=O)O [CLOMIPHENE CITRATE] ?
inactive

Hey, what did the test say about N[C@@H](CO)c1cn([C@@H](Cc2cc3ccccc3[nH]2)C(=O)N2CCNCC2)nn1 ?
active
